B1: SCNN1D (parent)
chain: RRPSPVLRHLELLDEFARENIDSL

# Variants of: B1
# assay: protein stability index of a GFP-peptide fusion (GPS, HEK-293T) (PSI 1-6); higher = more stable;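 also: lentivirally expressed fusions sorted by FACS into six bins by GFP to DsRed ratio, PSI derived from sequencing read proportions per bin multiplied by bin number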
# conditionSummary: c terminus: a fixed tail appended
Kindly supply the reported protein stability index values for the records listed here.
Give bare numbers.

mutantCode	protein stability index
E11R	2.96
E15H	2.92
P3N	3.06

Continue with the next variant.
I have this variant here, "E11Q" , and I need its recorded protein stability index.
3.06
